Listed molecules paired with reported IC50
Test system: HepG2 human hepatocellular carcinoma cells
Assay: In vitro HepG2 cytotoxicity (CellTiter 96)
Conditions: Homo sapiens, HepG2, 24 h, read-out: HepG2 IC50, 24 h incubation; * limit = highest evaluated concentration (precipitation in medium); ** over the 1000 µM limit
outcome.measure: IC50

| molecule | target.entity | outcome.measure | value.measured |
| --- | --- | --- | --- |
| CCCCCCCC(=O)Nc1nccnc1C(N)=O [Compound 32] | HepG2 human hepatocellular carcinoma cells | IC50 | > 1000 µM |
| NC(=O)c1nccnc1NC(=O)c1ccccc1C(F)(F)F [Compound 20] | HepG2 human hepatocellular carcinoma cells | IC50 | > 250 µM |
| NC(=O)c1nccnc1NC(=O)Cc1ccc(F)cc1 [Compound 25] | HepG2 human hepatocellular carcinoma cells | IC50 | > 100 µM |
| NC(=O)c1nccnc1NC(=O)c1ccccc1 [Compound 1] | HepG2 human hepatocellular carcinoma cells | IC50 | > 250 µM |

---

Listed compounds paired with reported MIC
Tested on: Candida parapsilosis CCM 8260 (ATCC 22019)
Assay: Antifungal microdilution broth (EUCAST), CP
Type: cell-based
Conditions: Lodderomyces parapsilosis; read after 24 h; read-out: CP MIC

| compound | MIC |
| --- | --- |
| NC(=O)c1nccnc1NC(=O)Cc1ccc(F)cc1 | > 250 µM |
| Cc1ccc(C(=O)Nc2nccnc2C(=O)N(C)C)cc1 | > 125 µM |
| CNC(=O)c1nccnc1NC(=O)c1ccc(Br)cc1 | > 125 µM |
| NC(=O)c1nccnc1NC(=O)C12CC3CC(CC(C3)C1)C2 | > 500 µM |
| NC(=O)c1nccnc1NC(=O)c1ccccc1F | > 500 µM |
| COC(=O)c1nccnc1NC(=O)c1cccc(Cl)c1 [Compound 14e] | > 500 µM |

---

Listed compounds paired with reported IC50
System: HepG2 human hepatocellular carcinoma cells
Test: In vitro HepG2 cytotoxicity (CellTiter 96)
Conditions: Homo sapiens, HepG2, 24 h, read-out: HepG2 IC50, 24 h incubation; * limit = highest evaluated concentration (precipitation in medium); ** over the 1000 µM limit

| compound | target.entity | IC50 |
| --- | --- | --- |
| NC(=O)c1nccnc1NC(=O)c1ccc(Br)cc1 [Compound 18] | HepG2 human hepatocellular carcinoma cells | > 25 µM |
| CNC(=O)c1nccnc1NC(=O)c1ccc(Cl)cc1 [Compound 34] | HepG2 human hepatocellular carcinoma cells | > 100 µM |
| NC(=O)c1nccnc1NC(=O)c1ccc([N+](=O)[O-])cc1 [Compound 21] | HepG2 human hepatocellular carcinoma cells | > 100 µM |

---

Listed molecules paired with reported KP MIC
System: Klebsiella pneumoniae CCM 4415 (ATCC 10031)
Experiment: Antibacterial microdilution broth (EUCAST), KP
Conditions: read after 24 h

| molecule | KP MIC |
| --- | --- |
| CN(C)C(=O)c1nccnc1NC(=O)c1ccc(Cl)cc1 [Compound 37] | > 500 µM |
| NC(=O)c1nccnc1NC(=O)c1ccccc1Cl [Compound 13] | > 500 µM |
| NC(=O)c1nccnc1NC(=O)c1ccc(F)cc1 [Compound 12] | > 500 µM |
| NC(=O)c1nccnc1NC(=O)c1ccc([N+](=O)[O-])cc1 [Compound 21] | > 125 µM |
